Assay: Antiproliferative activity against human SK-N-BE(2)-C cells in 3D growth culture
Type: functional, cell-based

# item-smiles, IC50
data = [
    ("N[C@H]1CC[C@H](S(=O)(=O)N2[C@@H]3CC[C@H]2C[C@@H](NC(=O)c2cc(C4CC4)on2)C3)CC1", "> 25 µM"),
]

---

Test system: ES-2
Assay: Antiproliferative activity against human ES2 cells after 10 days
Assay type: functional, cell-based
Conditions: ES-2, 240 h
pIC50: −log10 of the molar value.
Entries and their measured pIC50 follow.

# item-smiles, system-tested, result-operator, pIC50
data = [
    ("Cc1cn(CCN2CCN(c3ccccc3-c3cc(C#N)cc(C(=O)NCCCN4CCCC4)c3)CC2)c2ccccc12", "ES-2", "=", 5.88),
    ("O=C(NC1CN(Cc2cnn(Cc3ccccc3)c2)C1)c1cn(C2CC2)nn1", "ES-2", "<", 5.00),
]
